Test system: SK-OV-3
run_description: In vitro inhibitory concentration against SKOV3 cell line in MTT assay was determined after 3 days incubation
Assay type: functional, cell-based
assay_setup: Homo sapiens, SK-OV-3, 72 h
Listing of entries alongside the reported pIC50.
# pIC50: negative log10 of molar concentration; output just the value

Some molecules with recorded pIC50:
O=C(O[C@@H]1Cc2c(O)cc(O)cc2O[C@@H]1c1ccc(O)c(O)c1)c1cc(F)c(F)c(F)c1 ... 4.21
O=C(O[C@@H]1Cc2c(O)cc(O)cc2O[C@@H]1c1ccc(O)c(O)c1)c1cc(F)cc(F)c1 ... 4.11
COc1cc(CO[C@@H]2Cc3c(O)cc(O)cc3O[C@@H]2c2ccc(O)c(O)c2)cc(OC)c1OC ... 4.42
O=C(O[C@@H]1Cc2c(O)cc(O)cc2O[C@@H]1c1ccc(O)c(O)c1)c1ccc(OC(F)(F)F)cc1 ... 4.33
COc1cc(C(=O)O[C@@H]2Cc3c(O)cc(O)cc3O[C@@H]2c2ccc(O)c(O)c2)cc(OC)c1OC ... 4.30

### Prompt What does the data say about its pIC50? Entry: O=C(O[C@@H]1Cc2c(O)cc(O)cc2O[C@@H]1c1ccc(O)c(O)c1)c1cc(O)c(O)c(O)c1 [EPICATECHIN GALLATE]
### Response 3.73
